From: paper PMC10453832

- targetOrSystem: F-actin from rabbit skeletal muscle (rabbit, UniProt P68135 1-377)
- assayOverview: co-sedimentation; 2 µM ABD protein with increasing F-actin (3-120 µM) in F-buffer (10 mM Tris pH 7.5, 150 mM NaCl, 0.5 mM ATP, 2 mM MgCl2, 1 mM DTT); 30 min at room temperature; 50,000 RPM 30 min 25 °C; ABD left in supernatant quantified by SDS-PAGE and Coomassie; one-site fit with Bmax constrained to 1
- conditionParameters: both partners purified
The label satisfied is reserved for Kd strictly under 10 µM; not satisfied covers values equal to or above it.

- binder: "β-III-spectrin actin-binding domain K61E (domain or fragment, mutation found in a patient; also called K61E ABD; source: Rosetta 2 (DE3) E. coli, purified (Ni-NTA, tag cleaved with Ulp1, second Ni-NTA)) MSSTLSPTDFDSLEIQGQYSDINNRWDLPDSDWDNDSSSARLFERSRIKALADEREAVQKETFTKWVNSHLARVTCRVGDLYSDLRDGRNLLRLLEVLSGEILPKPTKGRMRIHCLENVDKALQFLKEQKVHLENMGSHDIVDGNHRLTLGLVWTIILRFQIQDISVETEDNKEKKSAKDALLLWCQMKTAGYPNVNVHNFTTSWRDGLAFNAIVHKHRPDLLDFESLKKCNAHYNLQNAFNLAEKELGLTKLLDPEDVNVDQPDEKSIITYVATYYHYFSKMK"
  categoryLabel: "satisfied"
- binder: "β-III-spectrin actin-binding domain L253P (domain or fragment, Construct pE-SUMO-ABD-L253P; Mutation found in SCA5 patients; also called L253P ABD; source: Rosetta 2 (DE3) E. coli, purified (Ni-NTA, tag cleaved with Ulp1, second Ni-NTA)) MSSTLSPTDFDSLEIQGQYSDINNRWDLPDSDWDNDSSSARLFERSRIKALADEREAVQKKTFTKWVNSHLARVTCRVGDLYSDLRDGRNLLRLLEVLSGEILPKPTKGRMRIHCLENVDKALQFLKEQKVHLENMGSHDIVDGNHRLTLGLVWTIILRFQIQDISVETEDNKEKKSAKDALLLWCQMKTAGYPNVNVHNFTTSWRDGLAFNAIVHKHRPDLLDFESLKKCNAHYNLQNAFNLAEKELGLTKPLDPEDVNVDQPDEKSIITYVATYYHYFSKMK"
  categoryLabel: "satisfied"
- binder: "β-III-spectrin actin-binding domain D255G (domain or fragment, mutation found in a patient; also called D255G ABD; source: Rosetta 2 (DE3) E. coli, purified (Ni-NTA, tag cleaved with Ulp1, second Ni-NTA)) MSSTLSPTDFDSLEIQGQYSDINNRWDLPDSDWDNDSSSARLFERSRIKALADEREAVQKKTFTKWVNSHLARVTCRVGDLYSDLRDGRNLLRLLEVLSGEILPKPTKGRMRIHCLENVDKALQFLKEQKVHLENMGSHDIVDGNHRLTLGLVWTIILRFQIQDISVETEDNKEKKSAKDALLLWCQMKTAGYPNVNVHNFTTSWRDGLAFNAIVHKHRPDLLDFESLKKCNAHYNLQNAFNLAEKELGLTKLLGPEDVNVDQPDEKSIITYVATYYHYFSKMK"
  categoryLabel: "satisfied"
- binder: "β-III-spectrin actin-binding domain H278R (domain or fragment, mutation found in a patient; also called H278R ABD; source: Rosetta 2 (DE3) E. coli, purified (Ni-NTA, tag cleaved with Ulp1, second Ni-NTA)) MSSTLSPTDFDSLEIQGQYSDINNRWDLPDSDWDNDSSSARLFERSRIKALADEREAVQKKTFTKWVNSHLARVTCRVGDLYSDLRDGRNLLRLLEVLSGEILPKPTKGRMRIHCLENVDKALQFLKEQKVHLENMGSHDIVDGNHRLTLGLVWTIILRFQIQDISVETEDNKEKKSAKDALLLWCQMKTAGYPNVNVHNFTTSWRDGLAFNAIVHKHRPDLLDFESLKKCNAHYNLQNAFNLAEKELGLTKLLDPEDVNVDQPDEKSIITYVATYYRYFSKMK"
  categoryLabel: "satisfied"
- binder: "β-III-spectrin actin-binding domain, wild-type (domain or fragment, Construct pE-SUMO-ABD WT; also called ABD WT; wild-type ABD; source: Rosetta 2 (DE3) E. coli, purified (Ni-NTA, tag cleaved with Ulp1, second Ni-NTA)) MSSTLSPTDFDSLEIQGQYSDINNRWDLPDSDWDNDSSSARLFERSRIKALADEREAVQKKTFTKWVNSHLARVTCRVGDLYSDLRDGRNLLRLLEVLSGEILPKPTKGRMRIHCLENVDKALQFLKEQKVHLENMGSHDIVDGNHRLTLGLVWTIILRFQIQDISVETEDNKEKKSAKDALLLWCQMKTAGYPNVNVHNFTTSWRDGLAFNAIVHKHRPDLLDFESLKKCNAHYNLQNAFNLAEKELGLTKLLDPEDVNVDQPDEKSIITYVATYYHYFSKMK"
  categoryLabel: "not satisfied"
- binder: "β-III-spectrin actin-binding domain F160C (domain or fragment, mutation found in a patient; The methods paragraph prints F16C, everywhere else F160C; also called F160C ABD; F16C (as printed in the methods); source: Rosetta 2 (DE3) E. coli, purified (Ni-NTA, tag cleaved with Ulp1, second Ni-NTA)) MSSTLSPTDFDSLEIQGQYSDINNRWDLPDSDWDNDSSSARLFERSRIKALADEREAVQKKTFTKWVNSHLARVTCRVGDLYSDLRDGRNLLRLLEVLSGEILPKPTKGRMRIHCLENVDKALQFLKEQKVHLENMGSHDIVDGNHRLTLGLVWTIILRCQIQDISVETEDNKEKKSAKDALLLWCQMKTAGYPNVNVHNFTTSWRDGLAFNAIVHKHRPDLLDFESLKKCNAHYNLQNAFNLAEKELGLTKLLDPEDVNVDQPDEKSIITYVATYYHYFSKMK"
  categoryLabel: "satisfied"
- binder: "β-III-spectrin actin-binding domain Y272H (domain or fragment, mutation found in a patient and a parent; also called Y272H ABD; source: Rosetta 2 (DE3) E. coli, purified (Ni-NTA, tag cleaved with Ulp1, second Ni-NTA)) MSSTLSPTDFDSLEIQGQYSDINNRWDLPDSDWDNDSSSARLFERSRIKALADEREAVQKKTFTKWVNSHLARVTCRVGDLYSDLRDGRNLLRLLEVLSGEILPKPTKGRMRIHCLENVDKALQFLKEQKVHLENMGSHDIVDGNHRLTLGLVWTIILRFQIQDISVETEDNKEKKSAKDALLLWCQMKTAGYPNVNVHNFTTSWRDGLAFNAIVHKHRPDLLDFESLKKCNAHYNLQNAFNLAEKELGLTKLLDPEDVNVDQPDEKSIITHVATYYHYFSKMK"
  categoryLabel: "not satisfied"
- binder: "β-III-spectrin actin-binding domain T62I (domain or fragment, mutation found in a patient; also called T62I ABD; source: Rosetta 2 (DE3) E. coli, purified (Ni-NTA, tag cleaved with Ulp1, second Ni-NTA)) MSSTLSPTDFDSLEIQGQYSDINNRWDLPDSDWDNDSSSARLFERSRIKALADEREAVQKKIFTKWVNSHLARVTCRVGDLYSDLRDGRNLLRLLEVLSGEILPKPTKGRMRIHCLENVDKALQFLKEQKVHLENMGSHDIVDGNHRLTLGLVWTIILRFQIQDISVETEDNKEKKSAKDALLLWCQMKTAGYPNVNVHNFTTSWRDGLAFNAIVHKHRPDLLDFESLKKCNAHYNLQNAFNLAEKELGLTKLLDPEDVNVDQPDEKSIITYVATYYHYFSKMK"
  categoryLabel: "satisfied"
- binder: "β-III-spectrin actin-binding domain K65E (domain or fragment, mutation found in a patient; also called K65E ABD; source: Rosetta 2 (DE3) E. coli, purified (Ni-NTA, tag cleaved with Ulp1, second Ni-NTA)) MSSTLSPTDFDSLEIQGQYSDINNRWDLPDSDWDNDSSSARLFERSRIKALADEREAVQKKTFTEWVNSHLARVTCRVGDLYSDLRDGRNLLRLLEVLSGEILPKPTKGRMRIHCLENVDKALQFLKEQKVHLENMGSHDIVDGNHRLTLGLVWTIILRFQIQDISVETEDNKEKKSAKDALLLWCQMKTAGYPNVNVHNFTTSWRDGLAFNAIVHKHRPDLLDFESLKKCNAHYNLQNAFNLAEKELGLTKLLDPEDVNVDQPDEKSIITYVATYYHYFSKMK"
  categoryLabel: "satisfied"
